Recorded below: pIC50, system MET (Homo sapiens, UniProt P08581).
# pIC50 is unitless: minus log10 of the molar concentration; print number only

CC(C)[C@@H]1C[C@@H](O)[C@H]2[C@@]1(C)CC[C@@]1(C)[C@H]3C(=CC[C@]21C)[C@@]1(C)CC[C@H](O)C(C)(C)[C@@H]1C[C@@H]3O
5.38

With those in mind, consider the next compound.
Enter reported pIC50 observed with MET (Homo sapiens, UniProt P08581) for CC(=O)O[C@H]1CC[C@]2(C)C3=CC[C@]4(C)[C@H]5[C@H](O)C[C@@H](C(C)C)[C@]5(C)CC[C@@]4(C)[C@@H]3[C@@H](O)C[C@H]2C1(C)C
Sequence (P08581 25-307): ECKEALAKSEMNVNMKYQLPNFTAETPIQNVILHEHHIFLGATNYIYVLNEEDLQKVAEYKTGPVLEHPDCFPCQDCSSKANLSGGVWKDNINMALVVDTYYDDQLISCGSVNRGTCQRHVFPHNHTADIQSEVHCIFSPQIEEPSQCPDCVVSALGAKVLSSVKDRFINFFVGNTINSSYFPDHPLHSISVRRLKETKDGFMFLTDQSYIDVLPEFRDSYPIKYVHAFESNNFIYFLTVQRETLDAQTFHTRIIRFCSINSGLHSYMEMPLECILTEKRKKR
Sequence (P08581 308-1390): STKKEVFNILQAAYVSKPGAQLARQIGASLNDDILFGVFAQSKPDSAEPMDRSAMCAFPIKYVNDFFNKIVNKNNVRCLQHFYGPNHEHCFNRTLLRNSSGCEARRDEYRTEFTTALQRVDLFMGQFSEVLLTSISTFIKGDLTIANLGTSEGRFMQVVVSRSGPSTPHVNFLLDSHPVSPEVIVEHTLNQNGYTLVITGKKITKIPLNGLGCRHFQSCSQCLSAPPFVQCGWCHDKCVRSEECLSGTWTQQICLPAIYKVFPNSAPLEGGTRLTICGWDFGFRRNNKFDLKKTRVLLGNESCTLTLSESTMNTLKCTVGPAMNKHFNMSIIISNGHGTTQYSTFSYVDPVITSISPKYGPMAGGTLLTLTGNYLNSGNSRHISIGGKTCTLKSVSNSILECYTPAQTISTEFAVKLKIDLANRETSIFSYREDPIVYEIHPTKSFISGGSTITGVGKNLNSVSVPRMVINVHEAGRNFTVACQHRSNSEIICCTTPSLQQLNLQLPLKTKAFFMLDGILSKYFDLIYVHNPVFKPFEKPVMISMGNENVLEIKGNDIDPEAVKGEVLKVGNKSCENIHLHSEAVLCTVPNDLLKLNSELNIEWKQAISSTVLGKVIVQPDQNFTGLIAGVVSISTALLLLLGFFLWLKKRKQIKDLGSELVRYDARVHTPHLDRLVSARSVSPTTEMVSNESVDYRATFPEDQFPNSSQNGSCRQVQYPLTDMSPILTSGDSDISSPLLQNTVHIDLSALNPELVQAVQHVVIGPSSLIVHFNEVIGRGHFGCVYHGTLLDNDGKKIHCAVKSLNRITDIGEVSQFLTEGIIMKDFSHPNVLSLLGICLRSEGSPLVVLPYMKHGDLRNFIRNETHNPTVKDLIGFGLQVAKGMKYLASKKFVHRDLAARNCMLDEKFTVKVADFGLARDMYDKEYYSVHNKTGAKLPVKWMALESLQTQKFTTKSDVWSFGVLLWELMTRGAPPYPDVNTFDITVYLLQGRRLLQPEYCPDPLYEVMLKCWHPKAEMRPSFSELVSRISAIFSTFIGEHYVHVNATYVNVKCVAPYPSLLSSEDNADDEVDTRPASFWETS
5.77
